target: human PDE2A3 enzyme (Homo sapiens, UniProt O00408); construct: Human PDE2A3 full-length gene was transduced into Sf9; His-tag; made in house; host or cells: Sf9 insect cells; experiment: PDE enzyme inhibitory assay (SPA, [3H]cGMP substrate); assay type: biochemical; details: compound 1 μM, substrate [3H]cGMP 77 nM, read-out: inhibitory rate (%) (1 μM)
Sequence (O00408 whole entry): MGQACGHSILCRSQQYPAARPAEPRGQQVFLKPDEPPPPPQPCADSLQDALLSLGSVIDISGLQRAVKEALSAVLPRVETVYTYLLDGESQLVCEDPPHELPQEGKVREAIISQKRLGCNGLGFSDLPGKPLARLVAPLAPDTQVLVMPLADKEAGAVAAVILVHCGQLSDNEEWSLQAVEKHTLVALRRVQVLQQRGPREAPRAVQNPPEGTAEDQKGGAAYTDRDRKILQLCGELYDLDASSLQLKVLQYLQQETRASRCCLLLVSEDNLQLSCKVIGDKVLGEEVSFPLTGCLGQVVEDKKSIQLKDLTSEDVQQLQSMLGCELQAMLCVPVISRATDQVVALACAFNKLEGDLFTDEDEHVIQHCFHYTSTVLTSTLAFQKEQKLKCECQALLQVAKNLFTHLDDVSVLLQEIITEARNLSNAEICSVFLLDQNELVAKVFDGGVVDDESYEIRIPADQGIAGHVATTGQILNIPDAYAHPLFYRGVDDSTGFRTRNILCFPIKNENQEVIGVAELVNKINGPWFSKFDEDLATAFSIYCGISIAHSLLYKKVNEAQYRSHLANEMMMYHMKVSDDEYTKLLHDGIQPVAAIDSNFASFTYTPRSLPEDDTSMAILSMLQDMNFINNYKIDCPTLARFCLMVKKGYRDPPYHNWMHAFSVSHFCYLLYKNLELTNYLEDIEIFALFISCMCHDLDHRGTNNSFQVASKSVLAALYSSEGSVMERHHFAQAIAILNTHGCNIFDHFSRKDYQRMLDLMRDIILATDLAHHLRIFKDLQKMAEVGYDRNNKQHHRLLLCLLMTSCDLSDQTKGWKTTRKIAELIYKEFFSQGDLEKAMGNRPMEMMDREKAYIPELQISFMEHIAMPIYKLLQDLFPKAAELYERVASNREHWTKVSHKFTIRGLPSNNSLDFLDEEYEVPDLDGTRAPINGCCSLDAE
What inhibition at 1 µM was measured for each of the following?
Just the number please, in %, no unit attached.

*Q* Please give measured inhibition at 1 µM of the following entry: "COC[C@@H](NC(=O)c1cc(=O)[nH]c(N2CCCC2)n1)c1ccc(OC(F)(F)F)cc1"
*A* 102

*Q* Please give measured inhibition at 1 µM of the following entry: "COC[C@@H](NC(=O)c1cc(=O)[nH]c(-c2ncc(C3CC3)cc2F)n1)c1ccc(OC(F)(F)F)c(F)c1"
*A* 94

*Q* Please give measured inhibition at 1 µM of the following entry: "COC[C@@H](NC(=O)c1cc(=O)[nH]c(C2CC2)n1)c1ccc(OC(F)(F)F)c(F)c1"
*A* 93

*Q* Please give measured inhibition at 1 µM of the following entry: "COC[C@@H](NC(=O)c1cc(=O)[nH]c(N2CC[C@H](OC(C)C)C2)n1)c1ccc(OC(F)(F)F)cc1"
*A* 100

*Q* Please give measured inhibition at 1 µM of the following entry: COCC(NC(=O)c1cc(=O)[nH]c(-c2ccccn2)n1)c1ccc(-n2cccc2)c(F)c1 (stereo not drawn)
*A* 99

*Q* Please give measured inhibition at 1 µM of the following entry: "COC[C@@H](NC(=O)c1cc(=O)[nH]c(N2CC3CC(C2)O3)n1)c1ccc(OC(F)(F)F)c(F)c1"
*A* 99

*Q* Please give measured inhibition at 1 µM of the following entry: "CC(C)(O)[C@@H](NC(=O)c1cc(=O)[nH]c(C2=CCCC2)n1)c1ccc(OC(F)(F)F)c(F)c1"
*A* 104

*Q* Please give measured inhibition at 1 µM of the following entry: COC[C@@H](NC(=O)c1cc(=O)[nH]c(C2=CCC(OC)C2)n1)c1ccc(OC(F)(F)F)c(F)c1 (stereo partly drawn)
*A* 103

*Q* Please give measured inhibition at 1 µM of the following entry: "COC[C@@H](NC(=O)c1cc(=O)[nH]c(-c2ncc(OC)cc2C)n1)c1ccc(OC(F)(F)F)c(F)c1"
*A* 94

*Q* Please give measured inhibition at 1 µM of the following entry: "COC[C@@H](NC(=O)c1cc(=O)[nH]c(C2=CCCC2)n1)c1ccc(OC(F)(F)F)cc1"
*A* 100

*Q* Please give measured inhibition at 1 µM of the following entry: "COC[C@@H](NC(=O)c1cc(=O)[nH]c(-c2cccs2)n1)c1ccc(OC(F)(F)F)c(F)c1"
*A* 97

*Q* Please give measured inhibition at 1 µM of the following entry: "COC[C@@H](NC(=O)c1cc(=O)[nH]c(C2=CCCC2)n1)c1ccc(OC(F)(F)F)c(F)c1"
*A* 98

*Q* Please give measured inhibition at 1 µM of the following entry: "COC[C@@H](NC(=O)c1cc(=O)[nH]c(-c2ncc(OC)cc2F)n1)c1ccc(OC(F)(F)F)c(F)c1"
*A* 99

*Q* Please give measured inhibition at 1 µM of the following entry: "CO[C@H]1CCN(c2cncc(C(=O)N[C@@H](c3ccc(OC(F)(F)F)c(F)c3)C(C)(C)O)n2)C1"
*A* 94

*Q* Please give measured inhibition at 1 µM of the following entry: "COC[C@@H](NC(=O)c1cc(=O)[nH]c(N(C)C)n1)c1ccc(OC(F)(F)F)cc1"
*A* 98
